System: SARS-CoV-2
EXPERIMENT DESCRIPTION: Antiviral activity against SARS-CoV-2 USA-WA1/2020 infected in human HeLa cells harbouring ACE2 assessed as reduction in cytopathic effect pretreated with cells followed by viral infection and measured after 24 hrs by fluorescence based analysis
Assay type: functional, organism-based
TEST CONDITIONS: Severe acute respiratory syndrome coronavirus 2, USA-WA1/2020, HeLa
EXPERIMENTAL READOUT: pEC50
By convention, pEC50 is the negative base-10 log of a molar concentration.

Answer with the recorded pEC50 for the molecule listed here: `CC1(C)[C@@H]2[C@@H](C(=O)N[C@H](C=O)C[C@@H]3CCNC3=O)N(C(=O)c3cc4cccc(C(F)(F)F)c4[nH]3)C[C@@H]21`
6.62

Quickly give me recorded pEC50 for `CC1(C)[C@@H]2[C@@H](C(=O)N[C@H](C=O)C[C@@H]3CCNC3=O)N(C(=O)Cc3ccccc3)C[C@@H]21`
6.28
